Target: Sterol 14-alpha demethylase (Trypanosoma cruzi (strain CL Brener), UniProt Q7Z1V1)
Sequence (Q7Z1V1 whole entry): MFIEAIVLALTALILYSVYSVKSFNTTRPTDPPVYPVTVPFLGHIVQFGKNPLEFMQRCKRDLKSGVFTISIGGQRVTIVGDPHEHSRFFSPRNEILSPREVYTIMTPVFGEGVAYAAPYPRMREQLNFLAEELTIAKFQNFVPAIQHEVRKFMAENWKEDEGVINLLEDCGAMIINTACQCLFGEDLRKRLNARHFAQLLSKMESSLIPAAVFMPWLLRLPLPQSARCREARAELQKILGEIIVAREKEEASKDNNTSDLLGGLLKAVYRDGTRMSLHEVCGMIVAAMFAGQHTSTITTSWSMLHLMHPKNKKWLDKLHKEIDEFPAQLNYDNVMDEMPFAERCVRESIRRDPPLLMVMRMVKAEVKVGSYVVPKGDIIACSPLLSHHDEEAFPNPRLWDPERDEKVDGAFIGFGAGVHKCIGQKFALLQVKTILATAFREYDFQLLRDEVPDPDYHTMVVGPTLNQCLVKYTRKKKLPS
Assay: GSK_TCAKS: pIC50 CYP51 from Trypanosoma cruzi.
For each of the compounds below, state its IC50.

Below, 3 compounds whose answers are already recorded.
Cc1cc(C)c(C#N)c(SCC(=O)c2ccc3c(c2)OCO3)n1 : > 100 µM
CC(=O)Nc1cccc(Nc2ncnc3[nH]cnc23)c1 : > 100 µM
NS(=O)(=O)c1ccc(Nc2ncc3cccc(OC4CCNCC4)c3n2)cc1 : > 100 µM

Give measured IC50 for every item shown.
1. COc1ccc(OC)c(S(=O)(=O)N(Cc2c(F)cccc2F)[C@@H]2CCN(C#N)C2)c1
2. Oc1c(-c2nnc(CCc3ccccc3)[nH]2)ncc2cccnc12
3. Cc1cc(NC(=O)CC2CCCCC2)n(-c2nc3c(c(=O)[nH]2)CCC3)n1
4. Nc1nc(-c2ccccc2)cc(-c2nc3cccnc3[nH]2)n1
5. O[C@H]1CC[C@H](Nc2nccc(-c3sc(C4CCOCC4)nc3-c3ccc(F)c(F)c3)n2)CC1

Result block:
1. > 100 µM
2. > 100 µM
3. > 100 µM
4. > 100 µM
5. > 100 µM

Give measured IC50 for every item shown.
1. COc1ccc([N+](=O)[O-])cc1NC(=O)c1cc(Cl)ccc1O
2. CCN(CC)c1nc(Nc2ccncc2)nc2ccccc12
3. Cc1ccc(NC(=O)C(C)n2nc([N+](=O)[O-])c(Br)c2C)cc1Cl (stereo unspecified)
4. CCCN1CCN(Cc2ccc(S(=O)(=O)Nc3cccc(C)c3)cc2)CC1

Result block:
["> 100 µM", "> 100 µM", "> 100 µM", "> 100 µM"]

Give measured IC50 for every item shown.
1. O=C1CN(Cc2ccco2)C2CS(=O)(=O)CC2N1c1ccc(Cl)cc1 (stereo unspecified)
2. CC1CCCCN1C(=O)NCCc1coc(-c2ccc(F)cc2)n1 (stereo unspecified)
3. COc1ccc(S(=O)(=O)Nc2ccccc2OC)cc1NC(=O)CCCc1c[nH]c2ccccc12
4. COc1ccc([N+](=O)[O-])cc1NC(=O)Nc1cccc(Cl)c1

Result block:
["> 100 µM", "> 100 µM", "> 100 µM", "> 100 µM"]
